assay.summary: Ex vivo biodistribution in mice with MM1S tumor xenografts
condition.context: both sexes, NSG, mouse, lung, 80 µCi, total radioactivity, 30 min p.i.; MM1S xenograft mice; read-out: uptake in lung
metric: tissue uptake at 0.5 h (%ID/g)

[[record]]
compound = "CC[C@H](C)[C@@H]1NC(=O)[C@@H]2CCCN2C(=O)[C@H](Cc2ccccc2)NC(=O)[C@H](CC(=O)O)NC(=O)[C@H](C)NC(=O)[C@@H]2CSCc3cc(cc(c3)CSC[C@H](NC(=O)[C@H](C)NC(=O)CCOCCOCCOCCNC(=O)CN3CCN(CC(=O)O)CCN(CC(=O)O)CC3)C(=O)N[C@@H](C(C)C)C(=O)N3CCC[C@H]3C(=O)N2)CSC[C@@H](C(N)=O)NC(=O)[C@H](Cc2ccc(O)cc2)NC(=O)[C@H](Cc2c[nH]c3ccccc23)NC1=O [[^68Ga]Ga‐AJ206, metal not drawn]"
unit_spec = "%ID/g"
obs_value = 3.43


----------
assay.summary: Ex vivo biodistribution in mice with MM1S tumor xenografts
condition.context: both sexes, NSG, mouse, bladder, 80 µCi, 30 min p.i.; MM1S xenograft mice; read-out: uptake in bladder
metric: tissue uptake at 0.5 h (%ID/g)

[[record]]
compound = "CC[C@H](C)[C@@H]1NC(=O)[C@@H]2CCCN2C(=O)[C@H](Cc2ccccc2)NC(=O)[C@H](CC(=O)O)NC(=O)[C@H](C)NC(=O)[C@@H]2CSCc3cc(cc(c3)CSC[C@H](NC(=O)[C@H](C)NC(=O)CCOCCOCCOCCNC(=O)CN3CCN(CC(=O)O)CCN(CC(=O)O)CC3)C(=O)N[C@@H](C(C)C)C(=O)N3CCC[C@H]3C(=O)N2)CSC[C@@H](C(N)=O)NC(=O)[C@H](Cc2ccc(O)cc2)NC(=O)[C@H](Cc2c[nH]c3ccccc23)NC1=O [[^68Ga]Ga‐AJ206, metal not drawn]"
unit_spec = "%ID/g"
obs_value = 4.51


----------
assay.summary: Ex vivo biodistribution in mice with MM1S tumor xenografts
condition.context: both sexes, NSG, mouse, lung, 80 µCi, total radioactivity, 90 min p.i.; MM1S xenograft mice; read-out: uptake in lung
metric: tissue uptake at 1.5 h

[[record]]
compound = "CC[C@H](C)[C@@H]1NC(=O)[C@@H]2CCCN2C(=O)[C@H](Cc2ccccc2)NC(=O)[C@H](CC(=O)O)NC(=O)[C@H](C)NC(=O)[C@@H]2CSCc3cc(cc(c3)CSC[C@H](NC(=O)[C@H](C)NC(=O)CCOCCOCCOCCNC(=O)CN3CCN(CC(=O)O)CCN(CC(=O)O)CC3)C(=O)N[C@@H](C(C)C)C(=O)N3CCC[C@H]3C(=O)N2)CSC[C@@H](C(N)=O)NC(=O)[C@H](Cc2ccc(O)cc2)NC(=O)[C@H](Cc2c[nH]c3ccccc23)NC1=O [[^68Ga]Ga‐AJ206, metal not drawn]"
obs_value = "0.95 %ID/g"


----------
assay.summary: Ex vivo biodistribution in mice with MOLP8 tumor xenografts
Parameters: species or system NSG mice
condition.context: both sexes, NSG, mouse, tumor/blood, 80 uCi, total radioactivity, 5 min p.i.; MOLP8 xenograft mice; read-out: Tumor/blood ratio
metric: tissue to tissue ratio at 5 min

[[record]]
compound = "CC[C@H](C)[C@@H]1NC(=O)[C@@H]2CCCN2C(=O)[C@H](Cc2ccccc2)NC(=O)[C@H](CC(=O)O)NC(=O)[C@H](C)NC(=O)[C@@H]2CSCc3cc(cc(c3)CSC[C@H](NC(=O)[C@H](C)NC(=O)CCOCCOCCOCCNC(=O)CN3CCN(CC(=O)O)CCN(CC(=O)O)CC3)C(=O)N[C@@H](C(C)C)C(=O)N3CCC[C@H]3C(=O)N2)CSC[C@@H](C(N)=O)NC(=O)[C@H](Cc2ccc(O)cc2)NC(=O)[C@H](Cc2c[nH]c3ccccc23)NC1=O [[^68Ga]Ga‐AJ206, metal not drawn]"
metric = "tissue to tissue ratio at 5 min"
obs_value = 0.32

